The origin of these recorded values is the supplement of paper PMC10567573.

B1: ZC3H15 (parent)
chain: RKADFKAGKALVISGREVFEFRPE

# Variants of: B1
# PROCEDURE DETAILS: protein stability index of a GFP-peptide fusion (GPS, HEK-293T) (PSI 1-6); higher = more stable;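 further: lentivirally expressed fusions sorted by FACS into six bins by GFP to DsRed ratio, PSI derived from sequencing read proportions per bin multiplied by bin number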
# CONDITION NOTES: c terminus: a fixed tail appended

- SEQUENCE ENTRY: "RKADKKAGKALVISGREVFEFRPE [F5K]"
  protein stability index: 3.47
- SEQUENCE ENTRY: "RKADFKAGKALMISGREVFEFRPE [V12M]"
  protein stability index: 3.26
- SEQUENCE ENTRY: "RGADFKAGKALVISGREVFEFRPE [K2G]"
  protein stability index: 3.3
- SEQUENCE ENTRY: "RKADFCAGKALVISGREVFEFRPE [K6C]"
  protein stability index: 2.79
- SEQUENCE ENTRY: "RKADFKAGFALVISGREVFEFRPE [K9F]"
  protein stability index: 1.7
- SEQUENCE ENTRY: "RKADFKAGKALVISGREVFEFTPE [R22T]"
  protein stability index: 3.03
- SEQUENCE ENTRY: "RKADFKAGKALVISGREVFEFRPN [E24N]"
  protein stability index: 2.84
- SEQUENCE ENTRY: "RKADFKAGKAPVISGREVFEFRPE [L11P]"
  protein stability index: 3.54
- SEQUENCE ENTRY: "RKADFHAGKALVISGREVFEFRPE [K6H]"
  protein stability index: 2.6
- SEQUENCE ENTRY: "RKADFKAGKALVISGREQFEFRPE [V18Q]"
  protein stability index: 3.46
